Ref: paper PMC7496508

Experiment: distribution coefficient logD, n-octanol/PBS
Format: physicochemical
Details: n-octanol/PBS, pH 7.4, n-octanol/PBS pH 7.4; overall mean
RECORDED METRIC: logD
The answer should be a number; do not append a unit.

Ask: Consider the molecule O=C(O)CC[C@H](NC(=O)N[C@@H](CCCCNC(=O)c1ccc(-c2cn(CCOCCOCC[18F])nn2)cc1)C(=O)O)C(=O)O [[^18F]PSMA‐MIC01] . State its measured logD.
Result: -3.01

Next molecule, please.
Ask: Give logD for the following molecule: O=C(O)CC[C@H](NC(=O)N[C@@H](CCCCNC(=O)c1ccc(-c2cn(CCOCCOCCOc3ccc(CC[18F])cc3)nn2)cc1)C(=O)O)C(=O)O [[^18F]PSMA‐MIC02]
Result: -3.22
